Source listed as patent US5416209A.

- Tested on: HIV virus (HIV-infected normal human blood lymphocytes (PBLs) or alternatively H9 cells)
- assay_details: HIV infection in cell culture (inhibition of virus-induced syncytia)
- Format: cell-based
- test_conditions: Human immunodeficiency virus 1, 72 h, concentration at which 50% of the virus-induced syncytia are suppressed, day 3 to 6 after infection, 37° C.
pIC50: −log10 of the molar value.
Give label 1 when the value for pIC50 is at least 7. Give label 0 when it is less.

Can `COC(=O)CON=c1c2cc(Cl)ccc2[nH]c(=O)c2ccccc12` be said to have pIC50 at or above 7?
label 0

Say whether `CCO/N=c1/c2cc(Cl)ccc2[nH]c(=O)c2ccccc12` shows pIC50 of 7 or more.
label 1

Reported pIC50 reaches at least 7 for O=c1[nH]c2ccc(Cl)cc2c(=NOC2CCCCO2)c2ccccc12 (centres unmarked) ?
label 0

Has `CON=c1c2cc(Cl)ccc2[nH]c(=O)c2ccccc12` a recorded pIC50 greater than or equal to 7?
label 0

Item `O=c1[nH]c2ccc(Cl)cc2c(=NOCc2c(F)c(F)c(F)c(F)c2F)c2ccccc12` with pIC50 of 7 or above?
label 0
